molecular target: HIV-1 protease (Q7S mutant form) (Human immunodeficiency virus type 1 group M subtype B, UniProt P04585, Q495S); construct: made in house; experiment: HIV-1 Protease RET assay; format: biochemical; conditions: Ave. Ki (nM), RET assay, Q7S enzyme, Morrison tight binding fit
Listed next: entries and their corresponding Ki.
# unit: nM | format: bare number

# example entries with known answers
compound=Cc1c(O)cccc1C(=O)N[C@@H](Cc1ccccc1)[C@H](O)C(=O)N1CSC(C)(C)[C@H]1C(=O)N[C@H]1CCCc2ccccc21 numeric_value=0.21
compound="Cc1ccccc1CNC(=O)[C@H]1N(C(=O)C(O)C(Cc2ccccc2)NC(=O)NCc2ccccc2Br)CSC1(C)C (stereo in doubt)" numeric_value=6.6
compound=Cc1c(O)cccc1C(=O)N[C@@H](Cc1ccccc1)[C@H](O)C(=O)N1CSC(C)(C)[C@H]1C(=O)NC1CCC1 numeric_value=0.6

If you can, please state the reported Ki value of "Cc1c(O)cccc1C(=O)N[C@@H](Cc1ccccc1)[C@H](O)C(=O)N1CSC(C)(C)[C@H]1C(=O)NCc1ccc2c(c1)OCO2" .
0.32

Every entry's value here was drawn from patent US7094909B2.
